Test system: Escherichia coli TOP10
Assay: shrunken log2 fold change of peptide-encoding DNA abundance (4.5 h post-induction vs induction); higher = less antimicrobial activity (less host growth inhibition)
Details: time post-induction: 4.5 h; library: site-saturation at positions 5, 18, 19, 20
Listed here: items and their measured shrunken log2 fold change.
No unit in the answer, please; the number alone is enough.

See these solved cases before continuing.
{"seq": "RRIRVRPPRLPRPRPRPEDVPRP", "shrunken log2 fold change": 0.0203}
{"seq": "RRIRPRPPRLPRPRPRPILNPRP", "shrunken log2 fold change": -0.339}
{"seq": "RRIRKRPPRLPRPRPRPFFVPRP", "shrunken log2 fold change": 0.461}
{"seq": "RRIRIRPPRLPRPRPRPTGSPRP", "shrunken log2 fold change": 0.087}

query: Hi! What's the reported shrunken log2 fold change for "RRIRMRPPRLPRPRPRPEKQPRP" on Escherichia coli TOP10?
result: 2.16

query: Hi! What's the reported shrunken log2 fold change for "RRIRFRPPRLPRPRPRPCRTPRP" on Escherichia coli TOP10?
result: 0.048

query: Hi! What's the reported shrunken log2 fold change for "RRIRRRPPRLPRPRPRPGDRPRP" on Escherichia coli TOP10?
result: 0.265

query: Hi! What's the reported shrunken log2 fold change for "RRIRLRPPRLPRPRPRPVLDPRP" on Escherichia coli TOP10?
result: -0.366

query: Hi! What's the reported shrunken log2 fold change for "RRIRCRPPRLPRPRPRPYTLPRP" on Escherichia coli TOP10?
result: -1.07

###

Test system: Escherichia coli TOP10
Assay: shrunken log2 fold change of peptide-encoding DNA abundance (4.5 h post-induction vs induction); higher = less antimicrobial activity (less host growth inhibition)
Settings: time post-induction: 4.5 h; library: site-saturation at positions 5, 18, 19, 20
quantity.name: shrunken log2 fold change
No unit in the answer, please; the number alone is enough.

query: Hi! What's the reported shrunken log2 fold change for "RRIRSRPPRLPRPRPRPDSEPRP" on Escherichia coli TOP10?
result: 0.139

query: Hi! What's the reported shrunken log2 fold change for "RRIRVRPPRLPRPRPRPYAEPRP" on Escherichia coli TOP10?
result: -0.0642

query: Hi! What's the reported shrunken log2 fold change for "RRIRPRPPRLPRPRPRPPKLPRP" on Escherichia coli TOP10?
result: 0.172

query: Hi! What's the reported shrunken log2 fold change for "RRIRYRPPRLPRPRPRPSMAPRP" on Escherichia coli TOP10?
result: -0.572

query: Hi! What's the reported shrunken log2 fold change for "RRIRHRPPRLPRPRPRPNEWPRP" on Escherichia coli TOP10?
result: -0.0925

query: Hi! What's the reported shrunken log2 fold change for "RRIRIRPPRLPRPRPRPAFQPRP" on Escherichia coli TOP10?
result: 0.107

###

System: Escherichia coli TOP10
Test: shrunken log2 fold change of peptide-encoding DNA abundance (4.5 h post-induction vs induction); higher = less antimicrobial activity (less host growth inhibition)
Conditions: time post-induction: 4.5 h; library: site-saturation at positions 5, 18, 19, 20
# label = satisfied if shrunken log2 fold change >= -0.08 else not satisfied

Solved cases (9 shown):
{"seq": "RRIRHRPPRLPRPRPRPYTMPRP", "class.label": "not satisfied"}
{"seq": "RRIRTRPPRLPRPRPRPNQDPRP", "class.label": "not satisfied"}
{"seq": "RRIRARPPRLPRPRPRPHQPPRP", "class.label": "not satisfied"}
{"seq": "RRIRPRPPRLPRPRPRPSMFPRP", "class.label": "not satisfied"}
{"seq": "RRIRIRPPRLPRPRPRPGTKPRP", "class.label": "not satisfied"}
{"seq": "RRIRERPPRLPRPRPRPETAPRP", "class.label": "satisfied"}
{"seq": "RRIRTRPPRLPRPRPRPVDNPRP", "class.label": "satisfied"}
{"seq": "RRIRTRPPRLPRPRPRPMDPPRP", "class.label": "not satisfied"}
{"seq": "RRIRGRPPRLPRPRPRPTYGPRP", "class.label": "satisfied"}

query: Given "RRIRYRPPRLPRPRPRPCGQPRP" , state whether its shrunken log2 fold change is at least -0.08.
result: satisfied

###

System: Escherichia coli TOP10
Experiment: shrunken log2 fold change of peptide-encoding DNA abundance (4.5 h post-induction vs induction); higher = less antimicrobial activity (less host growth inhibition)
Details: time post-induction: 4.5 h; library: site-saturation at positions 5, 18, 19, 20
# label = Yes if shrunken log2 fold change >= -0.2 else No

query: Given "RRIRLRPPRLPRPRPRPAENPRP" , state whether its shrunken log2 fold change is at least -0.2.
result: Yes

###

Tested on: Escherichia coli TOP10
Assay: shrunken log2 fold change of peptide-encoding DNA abundance (4.5 h post-induction vs induction); higher = less antimicrobial activity (less host growth inhibition)
Settings: time post-induction: 4.5 h; library: site-saturation at positions 5, 18, 19, 20
# label = 1 (yes) if shrunken log2 fold change >= -0.1 else 0 (no)

Solved cases (10 shown):
{"seq": "RRIRARPPRLPRPRPRPNNLPRP", "class.label": "0 (no)"}
{"seq": "RRIRDRPPRLPRPRPRPPGCPRP", "class.label": "1 (yes)"}
{"seq": "RRIRLRPPRLPRPRPRPIGKPRP", "class.label": "0 (no)"}
{"seq": "RRIRNRPPRLPRPRPRPEYFPRP", "class.label": "1 (yes)"}
{"seq": "RRIRSRPPRLPRPRPRPTWCPRP", "class.label": "1 (yes)"}
{"seq": "RRIRPRPPRLPRPRPRPIHHPRP", "class.label": "0 (no)"}
{"seq": "RRIRIRPPRLPRPRPRPSWNPRP", "class.label": "0 (no)"}
{"seq": "RRIRNRPPRLPRPRPRPGGVPRP", "class.label": "1 (yes)"}
{"seq": "RRIRSRPPRLPRPRPRPWVCPRP", "class.label": "1 (yes)"}
{"seq": "RRIRARPPRLPRPRPRPAWEPRP", "class.label": "1 (yes)"}

query: Given "RRIRTRPPRLPRPRPRPWIAPRP" , state whether its shrunken log2 fold change is at least -0.1.
result: 1 (yes)

query: Given "RRIRRRPPRLPRPRPRPFWAPRP" , state whether its shrunken log2 fold change is at least -0.1.
result: 1 (yes)

query: Given "RRIRLRPPRLPRPRPRPHGFPRP" , state whether its shrunken log2 fold change is at least -0.1.
result: 1 (yes)

query: Given "RRIRVRPPRLPRPRPRPACGPRP" , state whether its shrunken log2 fold change is at least -0.1.
result: 1 (yes)

query: Given "RRIRLRPPRLPRPRPRPSGTPRP" , state whether its shrunken log2 fold change is at least -0.1.
result: 0 (no)

query: Given "RRIRTRPPRLPRPRPRPRRDPRP" , state whether its shrunken log2 fold change is at least -0.1.
result: 1 (yes)

query: Given "RRIRSRPPRLPRPRPRPQYKPRP" , state whether its shrunken log2 fold change is at least -0.1.
result: 0 (no)

query: Given "RRIRCRPPRLPRPRPRPPYEPRP" , state whether its shrunken log2 fold change is at least -0.1.
result: 0 (no)

query: Given "RRIRKRPPRLPRPRPRPFDFPRP" , state whether its shrunken log2 fold change is at least -0.1.
result: 1 (yes)

query: Given "RRIRGRPPRLPRPRPRPWKGPRP" , state whether its shrunken log2 fold change is at least -0.1.
result: 1 (yes)

query: Given "RRIRDRPPRLPRPRPRPQCWPRP" , state whether its shrunken log2 fold change is at least -0.1.
result: 1 (yes)

###

System: Escherichia coli TOP10
Test: shrunken log2 fold change of peptide-encoding DNA abundance (4.5 h post-induction vs induction); higher = less antimicrobial activity (less host growth inhibition)
Conditions: time post-induction: 4.5 h; library: site-saturation at positions 5, 18, 19, 20
Listed here: items and their measured shrunken log2 fold change.
No unit in the answer, please; the number alone is enough.

{"seq": "RRIRERPPRLPRPRPRPMMWPRP", "tgt": "Escherichia coli TOP10", "quantity.name": "shrunken log2 fold change", "recorded.measurement": 0.3}

Turning now to a further sequence:
query: Reported shrunken log2 fold change, sequence "RRIRERPPRLPRPRPRPPIYPRP" : ____
result: -0.633

###

Test system: Escherichia coli TOP10;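 note: peptides expressed intracellularly from a pBAD plasmid library in pooled LB shake-flask culture, induced with 0.3% L-arabinose, DNA abundance read by NGS, three biological replicates, DESeq2 with apeglm shrinkage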
Experiment: shrunken log2 fold change of peptide-encoding DNA abundance (4.5 h post-induction vs induction); higher = less antimicrobial activity (less host growth inhibition)
Conditions: time post-induction: 4.5 h; library: site-saturation at positions 5, 18, 19, 20
Listed here: items and their measured shrunken log2 fold change.

{"seq": "RRIRTRPPRLPRPRPRPSASPRP", "tgt": "Escherichia coli TOP10", "quantity.name": "shrunken log2 fold change", "recorded.measurement": -0.0732}

query: Hi! What's the reported shrunken log2 fold change for "RRIRFRPPRLPRPRPRPGWVPRP" on Escherichia coli TOP10?
result: 0.176

query: Hi! What's the reported shrunken log2 fold change for "RRIRDRPPRLPRPRPRPSPAPRP" on Escherichia coli TOP10?
result: 0.0515

query: Hi! What's the reported shrunken log2 fold change for "RRIRHRPPRLPRPRPRPETRPRP" on Escherichia coli TOP10?
result: 0.013

query: Hi! What's the reported shrunken log2 fold change for "RRIRFRPPRLPRPRPRPQKTPRP" on Escherichia coli TOP10?
result: 0.00435

query: Hi! What's the reported shrunken log2 fold change for "RRIRDRPPRLPRPRPRPGSNPRP" on Escherichia coli TOP10?
result: -0.153
